# key: entry, value: viability
Tested on: SB.mhdgc-1
Experiment: viability at highest tested concentration (MAXR) relative to DMSO; higher = less cytotoxic
Conditions: SB.mhdgc-1 (hereditary c.1380delA CDH1 gastric cancer)
I only need the number, in %, no unit after it.

These solved cases illustrate the format of a correct answer.
molecule: CC(C)C(=O)Nc1ncc(-c2cc(C(F)F)nn2-c2c(Cl)cccc2Cl)s1 [BMS-5] (top concentration 46.0829 µM)
viability / %: 41.3
--
molecule: C#Cc1cccc(Nc2ncnc3cc(OC)c(OCCCCCCC(=O)NO)cc23)c1 [CUDC-101] (top concentration 46.0829 µM)
viability / %: 40.3
--
molecule: CC(C)OC(=O)CCC/C=C\C[C@@H]1[C@@H](/C=C/[C@@H](O)COc2cccc(C(F)(F)F)c2)[C@H](O)C[C@@H]1O [Travoprost] (top concentration 46.0829 µM)
viability / %: 70.6
--
molecule: COc1cccc(N(C)C(=S)Oc2ccc3c(c2)CCCC3)n1 [Liranaftate] (top concentration 46.0829 µM)
viability / %: 90.5

Which viability is reported for this molecule? CCC[C@@H](NC(=O)[C@@H]1[C@H]2CCC[C@H]2CN1C(=O)[C@@H](NC(=O)[C@@H](NC(=O)c1cnccn1)C1CCCCC1)C(C)(C)C)C(=O)C(=O)NC1CC1 [Telaprevir] (top concentration 46.0829 µM) 85.2

====

Tested on: SB.mhdgc-1
Experiment: area under the dose-response curve of % viability (trapezoidal, 11 doses) (% viability x log10 concentration); higher = less cytotoxic
Settings: SB.mhdgc-1 (hereditary c.1380delA CDH1 gastric cancer)
observable: area under the dose-response curve
Lab note: record just the number, no unit beside it.

Some solved entries appear below for comparison.
compound: COc1ccc(C[C@@H](C)[C@@H](C)Cc2ccc(OC)c(OC)c2)cc1OC [Terameprocol] (top concentration 46.0829 µM)
target_system: SB.mhdgc-1
area under the dose-response curve: 445
//
compound: Cc1coc2c1C(=O)C(=O)c1c-2ccc2c(C)cccc12 [Tanshinone I] (top concentration 46.0829 µM)
target_system: SB.mhdgc-1
area under the dose-response curve: 501
//
compound: CNC(=O)c1ccc2cc(C3(O)CCn4cncc43)ccc2c1 (configuration not stated) [Orteronel] (top concentration 46.0829 µM)
target_system: SB.mhdgc-1
area under the dose-response curve: 556
//
compound: CC1(C)CCC(C)(C)c2cc(NC(=O)c3ccc(C(=O)O)cc3)ccc21 [Tamibarotene] (top concentration 46.0829 µM)
target_system: SB.mhdgc-1
area under the dose-response curve: 561
//
compound: O=C1[O][Pt]2([NH]C3CCCCC3[NH]2)[O]C1=O (configuration not stated) [Oxaliplatin] (top concentration 46.0829 µM)
target_system: SB.mhdgc-1
area under the dose-response curve: 451
//
compound: C[S+](=O)([O-])N1CCN(Cc2cc3nc(-c4cccc5[nH]ncc45)nc(N4CCOCC4)c3s2)CC1 [GDC-0941] (top concentration 46.0829 µM)
target_system: SB.mhdgc-1
area under the dose-response curve: 335
//
compound: CC(=O)OCC(=O)[C@@]12OC(C)(C)O[C@@H]1C[C@H]3[C@@H]4C[C@H](F)C/5=C/C(=O)/C=C\[C@]5(C)[C@@]4(F)[C@@H](O)C[C@]23C [Fluocinonide] (top concentration 46.0829 µM)
target_system: SB.mhdgc-1
area under the dose-response curve: 583
//
compound: CC(C)(C)[C@]1(O)C[C@@H]2OC(=O)C[C@@]23C(=O)O[C@@H]2OC(=O)[C@H](O)C213 (some centres not stated) [Bilobalide] (top concentration 46.0829 µM)
target_system: SB.mhdgc-1
area under the dose-response curve: 577

Fill in: area under the dose-response curve of CN1CCC(=C2c3ccccc3CCc3sccc32)CC1 [Pizotifen] (top concentration 46.0829 µM) is ___ 588

Field request: area under the dose-response curve | item: CC(C)NCC(O)c1ccc(NS(C)(=O)=O)cc1 (configuration not stated) [Sotalol] (top concentration 46.0829 µM) 485

area under the dose-response curve for Cc1ccc([C@@H]2O[C@H](CO)[C@@H](O)[C@H](O)[C@H]2O)cc1Cc1ccc(-c2ccc(F)cc2)s1 [Canagliflozin] (top concentration 46.0829 µM) ? 559

Could you share which area under the dose-response curve value was measured for O=C(Nc1nnc(-c2ccco2)o1)c1cc(-c2ccccc2)nc2ccccc12 [STX-0119] (top concentration 46.0829 µM) ? 428

Given CC1(C)C(=O)N(CCN2CCC(C(=O)c3ccc(F)cc3)CC2)c2ccccc21 (top concentration 46.0829 µM) , state its recorded area under the dose-response curve. 466

What does the data say about its area under the dose-response curve? Entry: CCN(CC)CCNC(=O)c1ccc2nc(-c3ccccc3)c(-c3ccc(CN4CCC(n5c(=O)[nH]c6ccccc65)CC4)cc3)nc2c1 [Merck-22-6] (top concentration 46.0829 µM) 376

What value of area under the dose-response curve has been recorded for this entry: C[C@@H]1[C@H](O)[C@@H](C)/C=C/C=C/C=C/C=C/C=C/C=C/C=C/[C@H](O[C@@H]2O[C@H](C)[C@@H](O)[C@H](N)[C@@H]2O)C[C@@H]2O[C@](O)(C[C@@H](O)C[C@@H](O)[C@H](O)CC[C@@H](O)C[C@@H](O)CC(=O)O[C@H]1C)C[C@H](O)[C@H]2C(=O)O [Amphotericin B] (top concentration 46.0829 µM) 382

Field request: area under the dose-response curve | item: Cc1[nH]c2ccccc2c1CCNCc1ccc(/C=C/C(=O)NO)cc1 [Panobinostat] (top concentration 46.0829 µM) 339

Recorded area under the dose-response curve of Cc1c(C(=O)c2cccc3ccccc23)c2cccc3c2n1[C@H](CN1CCOCC1)CO3 (top concentration 46.0829 µM) , please. 441

Need area under the dose-response curve of Cc1ccc(-n2nc(C(C)(C)C)cc2NC(=O)Nc2ccc(OCCN3CCOCC3)c3ccccc23)cc1 [Doramapimod] (top concentration 46.0829 µM) , thanks. 488

Endpoint output: area under the dose-response curve of COc1ccccc1OCCNCC(O)COc1cccc2[nH]c3ccccc3c12 (configuration not stated) [Carvedilol] (top concentration 46.0829 µM) . Value? 590

====

Test system: SB.mhdgc-1
Assay: area under the dose-response curve of % viability (trapezoidal, 11 doses) (% viability x log10 concentration); higher = less cytotoxic
Details: SB.mhdgc-1 (hereditary c.1380delA CDH1 gastric cancer)
observable: area under the dose-response curve
The answer should be a number; do not append a unit.

compound: C#C[C@]1(O)CC[C@H]2[C@@H]3CCc4cc(O)ccc4[C@H]3CC[C@@]21C [Ethinylestradiol] (top concentration 46.0829 µM)
target_system: SB.mhdgc-1
endpoint_value: 496

I am curious: what area under the dose-response curve value has been reported for Cc1ccccc1C(C(=O)NC1CCCCC1)N(C(=O)Cn1ccnc1C)c1cccc(F)c1 (stereo unspecified) [AGI-5198] (top concentration 46.0829 µM) ? 597

Bench note: what area under the dose-response curve did CCc1cc2c(cc1N1CCC(N3CCOCC3)CC1)C(C)(C)c1[nH]c3cc(C#N)ccc3c1C2=O (top concentration 46.0829 µM) show? 395

Quick check: area under the dose-response curve of COCC(=O)NC/C=C/c1ccc2ncnc(Nc3ccc(Oc4ccc(C)nc4)c(C)c3)c2c1 (top concentration 46.0829 µM) ? 484

Which area under the dose-response curve is reported for this compound? C[C@]12CCC(=O)C(O)=C1CC[C@@H]1[C@@H]2CC[C@]2(C)C(=O)CC[C@@H]12 [Formestane] (top concentration 46.0829 µM) 602

Given the compound Cc1ccc(/C=N/NC(=O)c2ccccc2Oc2ccccc2)o1 (top concentration 46.0829 µM) , what is its reported area under the dose-response curve? 509

====

Test system: SB.mhdgc-1
Assay: area under the dose-response curve of % viability (trapezoidal, 11 doses) (% viability x log10 concentration); higher = less cytotoxic
Settings: SB.mhdgc-1 (hereditary c.1380delA CDH1 gastric cancer)
Where a name gives a salt, the structure may show the parent alone.
observable: area under the dose-response curve
Answer field: number only, no words.

compound: CN(C)[C@H]\1[C@@H]2[C@@H](O)[C@@H]\3C(=C)C4=C(C(=CC=C4)O)C(=O)C3=C(\O)[C@@]2(O)C(=O)\C(=C1O)C(N)=O [Methacycline hydrochloride] (top concentration 46.0829 µM)
area under the dose-response curve: 604

Can you look up the measured area under the dose-response curve of C[N]1C=C(C=N1)C2=CC=C3N=CC\4=C(N(C(=O)\C=C4)C5=CC6=C(CCN6C(=O)C=C)C=C5)C3=C2 (top concentration 46.0829 µM) for me? 381

What area under the dose-response curve value was documented for this compound, Cn1ccc2cc3c(cc21)CCN3C(=O)Nc1cccnc1 (top concentration 46.0829 µM) ? 462

Recorded area under the dose-response curve of C[C@H]1C[C@@H]2[C@H](CC[C@@]3(C)[C@H]2CC[C@]3(OC(C)=O)C(C)=O)[C@@]\4(C)CCC(=O)\C=C14 [Medroxyprogesterone acetate] (top concentration 46.0829 µM) , please. 467

What value of area under the dose-response curve has been recorded for this entry: O=c1oc2c(O)c(O)cc3c(=O)oc4c(O)c(O)cc1c4c23 [Ellagic acid] (top concentration 46.0829 µM) 533
